Test system: HCT-15 colon
Assay: NCI tumour cell line growth inhibition, 48 h
Measure: TGI

Reference set, count: 3
CC1(C)N([O-])[N+](=O)C1(C)Br (stereo unspecified) ... > 100 µM
COc1c(-c2nc3nc(N4CCN(C)CC4)ccc3[nH]2)cc(OC)c2c1nc(CO)n2C ... > 100 µM
CN=c1oc2ccccc2cc1C(N)=O ... > 100 µM

Recall the recorded TGI for CC1(C)[C@@H](Cn2nnc3c(N)ncnc32)CC[C@@]1(C)CO with HCT-15 colon and state it.
> 100 µM

Recall the recorded TGI for COc1cc(C(=O)C(CO)Oc2ccccc2OC)ccc1O (stereo unspecified) with HCT-15 colon and state it.
> 100 µM

====

Test system: NCI-H226 lung
Assay: NCI tumour cell line growth inhibition, 48 h
Overview of reported TGI across a group of compounds:
Kindly answer with a numeric value in µM, unit omitted.

Reference set, count: 4
COc1cc(-c2cc(/C=C3\C(=O)Nc4ccc(Cl)cc43)[nH]n2)cc(OC)c1OC ... 26.5
CCC(CC)COC(=O)[C@H](C)N[P@](=O)(OC[C@H]1O[C@@](C#N)(c2ccc3c(N)ncnn23)[C@H](O)[C@@H]1O)Oc1ccccc1 ... 49.1
COc1ccc(CN2CCc3c(Sc4ccccc4)nc(N)nc3C2=O)c(OC)c1 ... 27.1
CN1CN(c2ccccc2)C2(CCN(Cc3nc4ccccc4s3)CC2)C1=O ... 36.2

Given O=Cc1ccc(-c2nccc3c2[nH]c2ccccc23)o1 , state its recorded TGI.
9.86

====

Test system: SK-MEL-2 melanoma
Assay: NCI tumour cell line growth inhibition, 48 h
Measure: GI50

CCOC(=O)c1c2c(n(Cc3ccc(Cl)cc3Cl)c1C)-c1nc(Cc3ccccc3)[nH]c1C(=O)C2=O ... 2.83 µM
CCCCSSC(=S)N(CC)CC ... 57.7 µM
O=C1c2[nH]cc(CN3CCN(CCO)CC3)c2C(=O)c2c1c(O)c1ccccc1c2O ... 2.77 µM
CC(C)(C)CC(C)(C)c1ccc(OCCSC(=N)N)cc1 ... 1.96 µM
Cc1nn(-c2ccccc2)c(-n2ccnc2)c1/C=N/Nc1nc(-c2ccc(Cl)c(Cl)c2)cs1 ... 17.5 µM
C/C=C(/C(=C/C)c1ccc(O)cc1)c1ccc(O)cc1 ... 8.4 µM
COc1ccc(/C=C2\CS(=O)(=O)C/C(=C\c3ccc(OC)cc3)C2=O)cc1 ... 3.09 µM
COc1ccc(/C=N/Nc2nc(N)nc(N3CCCC3)c2C#N)cc1 ... 21.4 µM

// below: GI50 requested for another molecule
Given c1cc(N2CCN(c3ccc(C4=NCCN4)cc3)CC2)ccc1C1=NCCN1 , state its recorded GI50.
52.4 µM

====

Test system: LOX IMVI melanoma
Test: NCI tumour cell line growth inhibition, 48 h
Measure: TGI

Reference set, count: 2
CNc1cc(N)ccc1C(=O)N1CCC[C@H]1CO ... > 100 µM
O=C(O)CCc1nc2c(n1Cc1ccccc1)C(=O)c1ccccc1C2=O ... > 100 µM

Given CCP(=S)(CC)CCl , state its recorded TGI.
> 100 µM

Given COC(=O)c1cc2cc(-c3ccc(OC)cc3)cnc2[nH]1 , state its recorded TGI.
> 100 µM

Given OCCCNCC(O)c1ccc(OCc2ccccc2)c(OCc2ccccc2)c1 (configuration not stated) , state its recorded TGI.
13.7 µM

Given COc1c(-c2nc3nc(N4CCN(C)CC4)ccc3[nH]2)cc(OC)c2c1nc(CO)n2C , state its recorded TGI.
> 100 µM

Given COc1ccc(-c2cc3c(OC)c(OC)c(OC)cc3oc2=O)cc1 , state its recorded TGI.
> 100 µM

Given CC[N+](C)(CC)CCNC(=O)C(O)(c1ccccc1)c1ccccc1 , state its recorded TGI.
> 100 µM

Given CCOP(=O)(/C=C/n1ccc(=O)[nH]c1=O)OCC , state its recorded TGI.
> 100 µM

Given O=C(c1ccco1)N(Cc1cccnc1)C(=S)N(Cc1cccnc1)C(=O)c1ccco1 , state its recorded TGI.
27.8 µM
